Target: T1, human serum albumin (human, UniProt P02768 25-609)
T1 construct: immobilized on chips or coated on plates elsewhere; also called HSA; HuSA
Experiment: SPR, albumin immobilized;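 also: biacore SPR with human, rhesus or mouse serum albumin amine-coupled to the chip (about 1200 RU), 3 min association, 6-10 min dissociation, reference-subtracted traces fitted with a 1:1 model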
Item-by-item account of kon
Please state the figure in M⁻¹ s⁻¹; there is no need to write the unit.

Worked set:
binder="PKE2 Adnectin 2629_E06 (designed binder, 10Fn3 domain with modified CD loop; the entry includes the His6 tail; also called ADX_2629_E06) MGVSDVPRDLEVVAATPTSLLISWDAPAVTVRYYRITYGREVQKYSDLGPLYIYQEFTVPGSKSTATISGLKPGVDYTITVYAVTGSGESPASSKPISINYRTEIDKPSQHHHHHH" quantitative_readout=17400
binder="PCSK9-PKE2 tandem 4472_F08 (designed binder, The real molecule is ONE polypeptide: PCSK9 domain, undisclosed linker F, PKE2 domain. It is given here as two chains because the linker letters are unknown., not shown: The inter-domain linker) PCSK9 domain: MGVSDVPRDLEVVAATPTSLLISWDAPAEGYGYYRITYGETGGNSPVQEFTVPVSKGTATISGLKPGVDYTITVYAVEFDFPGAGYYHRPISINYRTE PKE2 domain: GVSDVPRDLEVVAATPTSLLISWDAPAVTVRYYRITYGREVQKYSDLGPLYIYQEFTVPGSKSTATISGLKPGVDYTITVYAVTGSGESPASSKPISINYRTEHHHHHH" quantitative_readout=4820

Task: Item under review: PCSK9-PKE2 tandem Adnectin w/ his tag 4472_C06 (designed binder, also called ATI-1574; ADX_4472_C06) MGVSDVPRDLEVVAATPTSLLISWDAPAEGYGYYRITYGETGGNSPVQEFTVPVSKGTATISGLKPGVDYTITVYAVEFDFPGAGYYHRPISINYRTEPSTPPTPSPSTPPTPSPSGVSDVPRDLEVVAATPTSLLISWDAPAVTVRYYRITYGREVQKYSDLGPLYIYQEFTVPGSKSTATISGLKPGVDYTITVYAVTGSGESPASSKPISINYRTEHHHHHH . Reported kon?
Output: 3920
